Target under test: recombinant human MASP2 active protease (amino acids 297-686, C-terminal His Tag) (human, UniProt O00187 297-686)
Sequence (O00187 other isoform, or with tags, fused parts or gaps limits assumed): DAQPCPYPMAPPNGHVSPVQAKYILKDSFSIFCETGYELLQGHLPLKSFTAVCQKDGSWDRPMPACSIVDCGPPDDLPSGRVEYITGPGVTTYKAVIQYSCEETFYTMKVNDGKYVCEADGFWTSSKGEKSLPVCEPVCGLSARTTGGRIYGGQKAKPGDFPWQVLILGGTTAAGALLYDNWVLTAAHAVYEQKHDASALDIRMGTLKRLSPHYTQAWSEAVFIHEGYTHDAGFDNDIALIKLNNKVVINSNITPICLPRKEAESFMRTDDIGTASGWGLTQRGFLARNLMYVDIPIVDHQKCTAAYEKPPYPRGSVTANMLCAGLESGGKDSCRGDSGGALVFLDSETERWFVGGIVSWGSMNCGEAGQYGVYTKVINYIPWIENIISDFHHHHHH
Protocol: cell-based or functional assay
Bridge positions count the residues as written; N and C are the ends. Square brackets hold non-standard residues; d marks the D form. Ends that are not written are not given here. Oic = O=C(O)[C@@H]1C[C@@H]2CCCC[C@@H]2N1; tBuAla = CC(C)(C)C[C@H](N)C(=O)O; Pen = CC(C)(S)[C@H](N)C(=O)O; NMeC = CN[C@@H](CS)C(=O)O; Nle = CCCC[C@H](N)C(=O)O
Attribute measured: human MASP2 IC50 (nM)
Give bare numbers, in nM.

# Binder, human MASP2 IC50 / nM
rows = [
    ("AICSRSLP[Oic]I[Pen]IPE-OH (disulfide 3-11; N-terminus assumed; SMILES CC[C@H](C)[C@H](NC(=O)[C@H](C)N)C(=O)N[C@H]1CSSC(C)(C)[C@@H](C(=O)N[C@H](C(=O)N2CCC[C@H]2C(=O)N[C@@H](CCC(=O)O)C(=O)O)[C@@H](C)CC)NC(=O)[C@H]([C@@H](C)CC)NC(=O)[C@@H]2C[C@@H]3CCCC[C@@H]3N2C(=O)[C@@H]2CCCN2C(=O)[C@H](CC(C)C)NC(=O)[C@H](CO)NC(=O)[C@H](CCCNC(=N)N)NC(=O)[C@H](CO)NC1=O) [AIC+SRSLP-(Oic)-I-(Pen)+IPE-OH]", 140),
]

Switching to the query record.
# human MASP2 IC50 of [Nle]ICSRS[tBuAla]PPI[NMeC]I-NH2 (disulfide 3-11; N-terminus assumed; SMILES CCCC[C@H](N)C(=O)N[C@H](C(=O)N[C@H]1CSSC[C@@H](C(=O)N[C@H](C(N)=O)[C@@H](C)CC)N(C)C(=O)[C@H]([C@@H](C)CC)NC(=O)[C@@H]2CCCN2C(=O)[C@@H]2CCCN2C(=O)[C@H](CC(C)(C)C)NC(=O)[C@H](CO)NC(=O)[C@H](CCCNC(=N)N)NC(=O)[C@H](CO)NC1=O)[C@@H](C)CC) [(Nle)-IC+SRS-((tBu)A)-PPI-((N-Me)C)+I-NH2] = 56
